Measured values drawn from ChEMBL document CHEMBL6115029 for this set.

assay: Inhibition of 6His-tagged KRAS G61H mutant(1 to 169 residues)/GST-tagged GMPPNP-bound BRAF RBD (155 to 229 reisudes)/Cyclophilin A (unknown origin) tri-complex protein-protein interaction incubated for 3 hrs by TR-FERT based disruption assay; design: species or system Homo sapiens
readout.label: pIC50
Worth noting: pIC50 values are minus log10 of concentrations stated in mol/L.

**Q:** Looking for the measured pIC50 of `CCn1c(-c2cccnc2[C@H](C)OC)c2c3cc(ccc31)-c1cccc(c1)C[C@H](NC(=O)[C@H](C(C)C)N(C)C(=O)[C@H]1CCN(C(C)=O)C1)C(=O)N1CCC[C@H](N1)C(=O)OCC(C)(C)C2` , can you help?
**A:** 5.89
